Data provenance is paper PMC2096648.

target.entity: recombinant human adenosine A2B receptors expressed in HEK-293 cell membranes (Homo sapiens, UniProt P29275)
Sequence (P29275 1-332): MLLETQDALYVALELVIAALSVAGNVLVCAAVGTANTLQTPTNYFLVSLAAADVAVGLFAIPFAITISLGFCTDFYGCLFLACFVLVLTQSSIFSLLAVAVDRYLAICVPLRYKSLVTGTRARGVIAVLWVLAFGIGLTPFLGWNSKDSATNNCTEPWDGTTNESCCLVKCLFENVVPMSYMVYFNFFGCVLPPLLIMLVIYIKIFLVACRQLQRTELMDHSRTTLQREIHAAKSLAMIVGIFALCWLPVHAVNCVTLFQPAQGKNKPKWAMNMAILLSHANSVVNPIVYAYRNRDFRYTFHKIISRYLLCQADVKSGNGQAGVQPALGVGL
assay.text: Competition assays versus 1 nM [^3H]PSB-298
pKi: −log10 of the molar value.
assay.readout: pKi

CCCn1c(=O)[nH]c2nc(-c3ccc(OCC(=O)NCCO)cc3)[nH]c2c1=O : 7.24
